# study system: cloned recombinant human HDAC-1 (Homo sapiens, UniProt Q13547)
# Construct: made in house; host or cells: Baculovirus insect cell expression system
# Sequence (Q13547 whole entry): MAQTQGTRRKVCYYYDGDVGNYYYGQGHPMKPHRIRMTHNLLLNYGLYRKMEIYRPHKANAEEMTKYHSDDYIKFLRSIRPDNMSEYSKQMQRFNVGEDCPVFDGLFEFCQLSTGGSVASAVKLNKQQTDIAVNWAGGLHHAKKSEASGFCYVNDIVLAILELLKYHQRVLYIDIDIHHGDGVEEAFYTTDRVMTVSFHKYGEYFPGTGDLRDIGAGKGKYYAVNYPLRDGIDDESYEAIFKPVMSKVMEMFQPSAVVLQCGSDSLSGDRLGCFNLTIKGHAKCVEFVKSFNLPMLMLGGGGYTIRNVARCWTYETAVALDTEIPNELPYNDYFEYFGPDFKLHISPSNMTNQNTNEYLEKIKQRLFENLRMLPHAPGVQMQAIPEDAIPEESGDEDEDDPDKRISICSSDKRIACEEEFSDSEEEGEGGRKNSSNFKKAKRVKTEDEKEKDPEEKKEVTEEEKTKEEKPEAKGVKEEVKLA
# test details: Human HDAC-1 enzyme inhibition, Assay 1 ([3H]-acetylated histone substrate, scintillation counting)
# Format: biochemical
# applied conditions: Table 5d; read-out: HDAC-1 IC50
# Description: Assay 1. HDAC inhibitors were screened against a cloned recombinant human HDAC-1 enzyme expressed and purified from a Baculovirus insect cell expression system. […] The mixture was extracted with ethyl acetate and the released [^3H]-acetic acid was quantified by scintillation counting. […] IC50 values for HDAC enzyme inhibitors were determined by performing dose response curves with individual compounds and determining the concentration of inhibitor producing fifty percent of the maximal inhibition.
experimental readout: pIC50
Please keep in mind that pIC50 is minus log10 of the molar concentration; only the number is needed.

What value of pIC50 has been reported for the following compound? Nc1ccccc1NC(=O)/C=C/c1ccc(CNc2nccc(C(F)(F)F)n2)cc1 [Cpd 529]
5.30

Similarly, COc1cc(NCc2ccc(/C=C/C(=O)Nc3ccccc3N)cc2)cc(OC)c1 [Cpd 494] ?
5.52

Similarly, COc1ccc(NCc2ccc(/C=C/C(=O)Nc3ccccc3N)cc2)c(OC)c1OC [Cpd 562] ?
5.30

Similarly, CSc1ccc(NCc2ccc(/C=C/C(=O)Nc3ccccc3N)cc2)cc1 [Cpd 556] ?
6.00

Similarly, CN1CCN(c2ccc(NCc3ccc(/C=C/C(=O)Nc4ccccc4N)cc3)cc2F)CC1 [Cpd 527] ?
5.40

Similarly, Nc1ccccc1NC(=O)/C=C/c1ccc(NCc2cccc(O)c2)nc1 [Cpd 524] ?
5.52

Similarly, COc1cc(NC(C)c2ccc(/C=C/C(=O)Nc3ccccc3N)cc2)cc(OC)c1OC (stereo not shown) [Cpd 518] ?
5.40
